Data credit: patent US20210246166A1

SYSTEM NAME: recombinant human MASP2 active protease (amino acids 297-686, C-terminal His Tag) (human, UniProt O00187 297-686)
Sequence (O00187 other isoform, or with tags, fused parts or gaps limits assumed): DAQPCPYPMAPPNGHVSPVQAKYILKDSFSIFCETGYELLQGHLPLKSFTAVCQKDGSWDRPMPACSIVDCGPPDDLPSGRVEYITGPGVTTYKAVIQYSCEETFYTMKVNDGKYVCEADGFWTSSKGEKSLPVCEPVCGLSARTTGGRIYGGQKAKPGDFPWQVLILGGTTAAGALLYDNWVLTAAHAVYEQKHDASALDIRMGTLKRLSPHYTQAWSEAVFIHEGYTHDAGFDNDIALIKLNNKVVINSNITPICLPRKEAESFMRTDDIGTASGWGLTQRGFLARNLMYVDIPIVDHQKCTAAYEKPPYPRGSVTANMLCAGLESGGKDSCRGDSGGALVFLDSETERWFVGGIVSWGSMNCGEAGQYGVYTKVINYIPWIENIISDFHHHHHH
TEST SUMMARY: cell-based or functional assay
Numbered stars: 1 amine (or outer) side, 2 acyl side, 3 side chain; on linkers, the order of the positions; unused ones are H or OH. Bridge positions count the residues as written; N and C are the ends. Square brackets hold non-standard residues; d marks the D form. Ends that are not written are not given here. Phe(2,3-F2) = (2S)-3-(2,3-difluorophenyl)-2-aminopropanoic acid, O=C([C@H](Cc1cccc(F)c1F)N[*:1])[*:2]; X3 = (1R,3S)‑3‑(Amino)cyclopentanecarboxylic acid, O=C([C@@H]1CC[C@H](N[*:1])C1)[*:2]; Oic = O=C(O)[C@@H]1C[C@@H]2CCCC[C@@H]2N1; Pen = CC(C)(S)[C@H](N)C(=O)O; Sar = CNCC(=O)O
Values of human MASP2 IC50 greater than or equal to 300 nM map to Yes; values below map to No.

- BINDER: "{(2S,3S)‑2‑(2-Oxopiperazin-1-yl)‑3‑methylpentanoic acid}-CSRSLPPICIPD-OH (disulfide 1-9) [Example 397: ((2S,3S)-2-[2-Oxopiperazin-1-yl]-3-methylpentanoic acid)-C+SRSLPPIC+IPD-OH]"
  CATEGORY LABEL: "Yes"
- BINDER: "ICSRSLP[Oic]I[Pen]I-NH2 (disulfide 2-10; N-terminus assumed; SMILES CC[C@H](C)[C@H](N)C(=O)N[C@H]1CSSC(C)(C)[C@@H](C(=O)N[C@H](C(N)=O)[C@@H](C)CC)NC(=O)[C@H]([C@@H](C)CC)NC(=O)[C@@H]2C[C@@H]3CCCC[C@@H]3N2C(=O)[C@@H]2CCCN2C(=O)[C@H](CC(C)C)NC(=O)[C@H](CO)NC(=O)[C@H](CCCNC(=N)N)NC(=O)[C@H](CO)NC1=O) [Example 341: IC+SRSLP-(Oic)-I-(Pen)+I-NH2]"
  CATEGORY LABEL: "Yes"
- BINDER: "[Sar]ICSRSLP[Oic]I[Pen]IP-NH2 (disulfide 3-11; also: citrate salt) [Example 376: ((N-Me)G)-IC+SRSLP-(Oic)-I-(Pen)+IP-NH2 (Citrate)]"
  CATEGORY LABEL: "No"
- BINDER: "[Sar]ICSRSLP[Oic]I[Pen]IP[X3]-OH (disulfide 3-11; N-terminus assumed; SMILES CC[C@H](C)[C@H](NC(=O)CNC)C(=O)N[C@H]1CSSC(C)(C)[C@@H](C(=O)N[C@H](C(=O)N2CCC[C@H]2C(=O)N[C@H]2CC[C@@H](C(=O)O)C2)[C@@H](C)CC)NC(=O)[C@H]([C@@H](C)CC)NC(=O)[C@@H]2C[C@@H]3CCCC[C@@H]3N2C(=O)[C@@H]2CCCN2C(=O)[C@H](CC(C)C)NC(=O)[C@H](CO)NC(=O)[C@H](CCCNC(=N)N)NC(=O)[C@H](CO)NC1=O) [Example 449: ((N-Me)G)-IC+SRSLP-(Oic)-I-(Pen)+IP-((1R,3S)-3-(Amino)cyclopentanecarboxylic acid)-OH]"
  CATEGORY LABEL: "No"
- BINDER: "[Sar]ICSRS[Phe(2,3-F2)]P[Oic]I[Pen]IP-NH2 (disulfide 3-11; N-terminus assumed; SMILES CC[C@H](C)[C@H](NC(=O)CNC)C(=O)N[C@H]1CSSC(C)(C)[C@@H](C(=O)N[C@H](C(=O)N2CCC[C@H]2C(N)=O)[C@@H](C)CC)NC(=O)[C@H]([C@@H](C)CC)NC(=O)[C@@H]2C[C@@H]3CCCC[C@@H]3N2C(=O)[C@@H]2CCCN2C(=O)[C@H](Cc2cccc(F)c2F)NC(=O)[C@H](CO)NC(=O)[C@H](CCCNC(=N)N)NC(=O)[C@H](CO)NC1=O)"
  CATEGORY LABEL: "No"
